Reference for the values: patent US20240116985A1

Attribute: pIC50
Biological target: full-length beta-Catenin (Uniprot ID P35222) (Homo sapiens, UniProt P35222)
Construct: 10 nM full-length beta-Catenin (Uniprot ID P35222)
Sequence (P35222 whole entry): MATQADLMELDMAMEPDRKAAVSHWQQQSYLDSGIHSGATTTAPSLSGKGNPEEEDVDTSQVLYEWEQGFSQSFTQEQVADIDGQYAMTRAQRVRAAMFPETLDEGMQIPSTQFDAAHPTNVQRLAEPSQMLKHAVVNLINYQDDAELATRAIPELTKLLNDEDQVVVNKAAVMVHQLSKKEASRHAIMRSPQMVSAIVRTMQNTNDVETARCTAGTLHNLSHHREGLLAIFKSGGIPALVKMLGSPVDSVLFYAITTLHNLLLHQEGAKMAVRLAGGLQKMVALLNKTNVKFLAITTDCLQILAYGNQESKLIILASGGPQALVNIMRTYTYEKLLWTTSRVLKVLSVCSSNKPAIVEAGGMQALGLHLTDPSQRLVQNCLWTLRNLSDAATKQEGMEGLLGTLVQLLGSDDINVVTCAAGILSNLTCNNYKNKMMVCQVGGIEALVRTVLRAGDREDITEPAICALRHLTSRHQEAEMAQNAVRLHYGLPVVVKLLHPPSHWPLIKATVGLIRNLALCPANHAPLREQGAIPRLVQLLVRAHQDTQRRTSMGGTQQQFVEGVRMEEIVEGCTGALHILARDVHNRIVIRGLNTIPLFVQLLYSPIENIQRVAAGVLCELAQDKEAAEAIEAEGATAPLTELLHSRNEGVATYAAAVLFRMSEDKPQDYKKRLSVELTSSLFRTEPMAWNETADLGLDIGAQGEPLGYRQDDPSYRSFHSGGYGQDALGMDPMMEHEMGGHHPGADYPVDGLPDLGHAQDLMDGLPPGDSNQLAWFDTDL
Test: Fluorescence polarization IC50 (beta-catenin / 5FAM-TCF4 10-53 competition)
Type: binding
Settings: fluorescence polarization; read-out: beta-Catenin FP IC50
Please treat pIC50 as minus the base-10 logarithm of the molar concentration.

Use these answered entries as a reference point.
COMPOUND	PROPERTY_MEASURED	RESULT_NUMBER
CC(=O)N1CCC[C@]12CC=CCCCC1(CCCC=CCCCOC(=O)N3CC[C@@](C(=O)N[C@@H](Cc4ccccc4F)C(=O)N[C@@H](Cc4csc5ccccc45)C(=O)N[C@@H](CCC(N)=O)C(N)=O)(C3)NC(=O)[C@H](CC(N)=O)NC(=O)[C@H](Cc3ccccc3)NC(=O)[C@H](C)NC(=O)[C@H](C)NC(=O)[C@H](CC(=O)O)NC(=O)[C@H](CC(=O)O)NC1=O)NC(=O)[C@H](CC(C)(C)C)NC(=O)[C@H](CC(=O)O)NC2=O (some centres unmarked) [I-1320]	pIC50	8.00
CC(=O)N1CCC[C@]12CC=CCCCC1(CCCC=CCCCOC(=O)N3CC[C@@](C(=O)N[C@@H](Cc4ccccc4C(F)(F)F)C(=O)N[C@@H](Cc4csc5ccccc45)C(=O)N[C@@H](C)C(N)=O)(C3)NC(=O)[C@H](CC(C)C)NC(=O)[C@H](Cc3ccccc3)NC(=O)[C@H](C)NC(=O)[C@H](CCC(=O)N3CCN(CCCN(C)C)CC3)NC(=O)[C@H](Cc3cccc(C(=O)O)c3)NC(=O)[C@H](CC(=O)O)NC1=O)NC(=O)[C@H](CC(C)(C)C)NC(=O)[C@H](CC(=O)O)NC2=O (some centres unmarked) [I-2323]	pIC50	8.22
CC(=O)N1CCC[C@]12CC=CCCCC1(CCCC=CCCCOC(=O)N3CC[C@@](C(=O)N[C@@H](Cc4ccsc4)C(=O)N[C@@H](Cc4csc5ccccc45)C(=O)N[C@@H](CCO)C(N)=O)(C3)NC(=O)[C@H](CC(C)C)NC(=O)[C@H](Cc3ccccc3)NC(=O)[C@H](C)NC(=O)[C@H](C)NC(=O)[C@H](CC(=O)O)NC(=O)[C@H](CC(=O)O)NC1=O)NC(=O)[C@H](CC(N)=O)NC(=O)[C@H](CC(=O)O)NC2=O (some centres unmarked) [I-1518]	pIC50	7.64
CC(=O)N1CCC[C@]12CC=CCCCC1(CCCC=CCCCOC(=O)N3CC[C@@](C(=O)N[C@@H](Cc4ccccc4)C(=O)N[C@@H](Cc4csc5ccccc45)C(=O)N[C@@H](CCO)C(N)=O)(C3)NC(=O)[C@H](CC(N)=O)NC(=O)[C@H](Cc3ccccc3)NC(=O)[C@H](C)NC(=O)[C@H](Cc3c[nH]cn3)NC(=O)[C@H](CCC(N)=O)NC(=O)[C@H](CC(=O)O)NC1=O)NC(=O)[C@H](CC1CCCCC1)NC(=O)[C@H](CC(N)=O)NC2=O (some centres unmarked) [I-2066]	pIC50	6.45

Here is another compound to look at.
In: # get_value(readout='pIC50', item= CC(=O)N1CCC[C@]12CC=CCCCC1(CCCC=CCCCOC(=O)N3CC[C@@](C(=O)N[C@@H](Cc4ccsc4)C(=O)N[C@@H](Cc4csc5ccccc45)C(=O)N[C@@H](CCC(N)=O)C(N)=O)(C3)NC(=O)[C@H](CC(C)C)NC(=O)[C@H](Cc3ccccc3)NC(=O)[C@H](C)NC(=O)[C@H](C)NC(=O)[C@H](CC(=O)O)NC(=O)[C@H](CC(=O)S)NC1=O)NC(=O)[C@H](CC(C)(C)C)NC(=O)[C@H](CC(=O)O)NC2=O (some centres unmarked) [I-1944] )
Out: 5.79
